Target: T1, RANKL expressed on the surface of 293 cells (UniProt O14788 1-317, limits assumed)
T1 construct: whole, on cells; also called RANKL-transfected 293 cells; cells expressing RANKL
T1 sequence (looked up): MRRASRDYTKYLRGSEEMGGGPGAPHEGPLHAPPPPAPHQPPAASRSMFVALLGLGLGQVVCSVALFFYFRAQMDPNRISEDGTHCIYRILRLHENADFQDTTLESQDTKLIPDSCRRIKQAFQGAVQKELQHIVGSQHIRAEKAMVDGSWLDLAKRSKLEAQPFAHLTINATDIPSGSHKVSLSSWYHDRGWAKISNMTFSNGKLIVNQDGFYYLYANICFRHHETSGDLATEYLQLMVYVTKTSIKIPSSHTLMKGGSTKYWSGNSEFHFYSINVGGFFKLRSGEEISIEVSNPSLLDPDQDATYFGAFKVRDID
Assay: flow cytometry (MFI) on RANKL-transfected 293 cells
Parameter: EC50 (µg/mL)
Number only, in µg/mL; omit the unit.

// known answers, use as guide
clone EBI-51-4 rabbit anti-RANKL antibody (antibody, V domains shown) VH: QSVEESGGRLVKPGESLTLTCTASGFSLSSDVISWVRQAPGKGLEWIGYGWSGGPTYYANWAKGRFTISKTSSTTVDLKITSPTTEDTATYFCARGFNPFDPWGPGTLVTVSS VL: DMTQTPASVSEPVGGTVTIKCQASQNIGSNLAWYQQKPGQRPKLLIYRASTLASGVSSRFKGSGSGTQFTLTISDLECADAATYYCQQGYSAGNVDNSFGGGTEVVVK    0.078
clone EBI-51-1 rabbit anti-RANKL antibody (antibody, V domains shown) VH: QEQLEESGGGLVKPEGSLTLTCTASGFDLSTYYYMCWVRQAPGKGLEWIACIYTGRASTYYATWAKGRFTISKTSSTTVTLQMTSLTAADTATFFCASKAGDIWYYGMDLWGPGTLVTVSS VL: DMTQTPASVSEPVGGTVTIKCQASQNIGSNLAWYQQKPGQRPKLLIYRASTLASGVSSRFKGSGSGTQFTLTISDLECADAATYYCQQGYSAGNVDNNTFGGGTEVVVK    0.0867

Next binder, please.
For the binder clone EBI-51-22 rabbit anti-RANKL antibody (antibody, V domains shown) VH: QSVEESGGRLVTPGTLLTLTCTVSGFSLSTDVLSWVRQAPGKGLEWIGYTWSGGSTYYASWAKGRFTISKTSSTTVDLKITSPTTEDTATYFCARGFNPFDPWGPGTLVTVSS VL: DMTQTPASVSDPVGGTVTIKCQASQNIGSNLAWYQQKPGQRPKLLIYRASTLASGVSSRFKGSGSGTQFTLTISDLECADAATYYCQQGYSAGNVDNNAFGGGTEVVVK , what EC50 is on record?
0.083
